For each entry below, report its gcPBM binding intensity (ln) value.
Test system: PfAP2-G AP2 domain (GST-tagged)
Assay: gcPBM binding intensity (ln(normalized median fluorescence intensity)); higher = stronger DNA binding
In all, about 25,000 sequences were measured (“ln(normalized median fluorescence intensity)”: median about 10, highest 2% from about 12 on). The full list was thinned out, with the highest values kept by preference.
Reply with the value as a number alone.

// query Sample AGGCACAAAATTAAATGTACATATATATATATATAT [XGTACX_site3323] — what was its gcPBM binding intensity (ln)?
// result 11

// query Form field: reported gcPBM binding intensity (ln) of ACGGATTAAAAAATGTGTACGCACAAAAAAAAAAAT [XGTACX_site8259]
// result 11.7

// query State the recorded gcPBM binding intensity (ln) for this entry: TTATATACATAAAAATGTACTTTTTATAAAATATAT [XGTACX_site8281]
// result 11.2

// query Record request: gcPBM binding intensity (ln) value, item TAATAATAAATAAAATGTACATATGAACAAATAAGT [XGTACX_site6710]
// result 11.3

// query Return reported gcPBM binding intensity (ln); argument: TTATTAAAAATGGTATGTACGCACATAATATATATA [XGTACX_site3230]
// result 11.5

// query May I ask what gcPBM binding intensity (ln) has been recorded for CTTTTAATTATAAAATGTACTTAAAAATAATAATAC [XGTACX_site635] ?
// result 11.1

// query Param item = AATAATGTATGAAATAAACACACAAGTAAGTACATA [CACACA_site8776] ; retrieve measured gcPBM binding intensity (ln).
// result 11.7

// query Return reported gcPBM binding intensity (ln); argument: CCTTTATAAAAAAGTAGTACACAATGAATTTATAAT [XGTACX_site5523]
// result 11.8

// query Requested field: gcPBM binding intensity (ln). Item: TAAAATAAAAATTAAAGTACATATGTATATATATAT [XGTACX_site3984]
// result 11.1
